target: alpha 2B adrenergic receptor (Homo sapiens, UniProt P18089); construct: expressed in transfected cells; host or cells: NIH-3T3 cells, transient cotransfection by calcium phosphate; test: RSAT (Receptor Selection and Amplification Technology) assay, alpha 2B; type: cell-based; details: NIH-3T3 cells cotransfected with receptor and Gq/i5
Sequence (P18089 whole entry): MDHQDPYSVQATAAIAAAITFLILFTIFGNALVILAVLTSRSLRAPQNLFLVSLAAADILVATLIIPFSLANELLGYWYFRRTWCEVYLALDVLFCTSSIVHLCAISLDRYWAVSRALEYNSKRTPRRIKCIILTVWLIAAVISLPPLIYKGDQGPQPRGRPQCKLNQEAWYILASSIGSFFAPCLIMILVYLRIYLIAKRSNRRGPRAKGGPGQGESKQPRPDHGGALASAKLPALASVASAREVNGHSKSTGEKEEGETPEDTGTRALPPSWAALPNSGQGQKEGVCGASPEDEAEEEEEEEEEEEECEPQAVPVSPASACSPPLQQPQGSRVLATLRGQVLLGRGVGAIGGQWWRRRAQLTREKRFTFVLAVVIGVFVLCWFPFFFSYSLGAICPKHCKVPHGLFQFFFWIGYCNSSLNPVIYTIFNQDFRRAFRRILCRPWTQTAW
property-label: log10(EC50) (log10 of the value in nM)
Please interpret these as log10 of EC50 where EC50 is in nM.

Solved entries (count: 8):
compound	measured-on	property-label	recorded-result
OCCNC(=S)NCc1cc(F)ccc1F	alpha 2B adrenergic receptor (Homo sapiens, UniProt P18089)	log10(EC50)	1.11
OCCNC(=S)NCc1c(Cl)cccc1Cl	alpha 2B adrenergic receptor (Homo sapiens, UniProt P18089)	log10(EC50)	2.58
OCCNC(=S)NCc1cc(Br)c(F)c(F)c1F	alpha 2B adrenergic receptor (Homo sapiens, UniProt P18089)	log10(EC50)	2.71
Cc1cc(Cl)c(F)c(CNC(=S)NCCO)c1	alpha 2B adrenergic receptor (Homo sapiens, UniProt P18089)	log10(EC50)	1.79
OCCNC(=S)NCc1c(F)cc(F)c(Cl)c1F	alpha 2B adrenergic receptor (Homo sapiens, UniProt P18089)	log10(EC50)	2.45
Cc1cc(Br)cc(CNC(=S)NCCO)c1F	alpha 2B adrenergic receptor (Homo sapiens, UniProt P18089)	log10(EC50)	2.38
Cc1ccccc1CNC(=S)NCCO	alpha 2B adrenergic receptor (Homo sapiens, UniProt P18089)	log10(EC50)	2.24
OCCNC(=S)NCc1cccc(Br)c1F	alpha 2B adrenergic receptor (Homo sapiens, UniProt P18089)	log10(EC50)	0.74

Task: Given the compound `OCCNC(=S)NCc1cc(Cl)cc(Cl)c1F` , what is its reported log10(EC50)?
Result: 2.07

Task: Could you share which log10(EC50) value was measured for `OCCNC(=S)NCc1cc(F)ccc1Br` ?
Result: 1.30

Task: Entry `Cc1ccc(Br)c(CNC(=S)NCCO)c1F` has what log10(EC50)?
Result: 2.06

Task: Sample `OCCNC(=S)NCc1c(F)cccc1F` — what was its log10(EC50)?
Result: 2.66
